Parameter: pKi. Scope: all listed entries.
- test system: Carbonic anhydrase 1 (Homo sapiens, UniProt P00915)
- Sequence (P00915 whole entry, canonical isoform): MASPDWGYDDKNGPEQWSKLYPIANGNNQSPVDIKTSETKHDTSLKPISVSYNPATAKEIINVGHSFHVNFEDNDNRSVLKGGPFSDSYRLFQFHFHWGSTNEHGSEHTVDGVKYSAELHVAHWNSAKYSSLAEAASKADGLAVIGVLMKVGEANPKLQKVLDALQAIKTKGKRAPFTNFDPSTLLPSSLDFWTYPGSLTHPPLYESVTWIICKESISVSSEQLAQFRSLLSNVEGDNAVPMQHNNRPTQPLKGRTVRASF
- test description: Inhibition of recombinant human CA1 cytosolic isoform preincubated for 15 mins by stopped-flow CO2 hydration assay
As a rule, pKi stands for the negative log10 of the concentration, concentration in M.

>  <compound>
S=C(S)OC1CCCC1

>  <test system>
Carbonic anhydrase 1 (Homo sapiens, UniProt P00915)

>  <pKi>
6.27

$$$$

Let us examine a further case.
Record lookup: for Carbonic anhydrase 1 (Homo sapiens, UniProt P00915), what pKi belongs to S=C(S)OC1CC2CC1C1CCCC21 (configuration not stated) ?
7.20
